# Tested on: CCRIS mutagenicity, Ames/micronucleus/aberration tests
# experimental protocol: CCRIS mutagenicity studies
# measurement conditions: Test System: AMES SALMONELLA TYPHIMURIUM; Strain/Indicator: TA98; Metabolic Activation: NONE; Method: PREINCUBATION
Activity calls are given as the source filed them. No rule for the calls is given here.
Bench note: report the call from true (1) = active, false (0) = inactive

Solved entries:
[[record]]
sample_smiles = "COc1ccc([N+](=O)[O-])cc1N=Nc1c(O)c(C(=O)Nc2cccc([N+](=O)[O-])c2)cc2ccccc12"
group_label = "true (1)"

[[record]]
sample_smiles = "OCCBr"
group_label = "false (0)"

[[record]]
sample_smiles = "CN(C)C(=O)Nc1cccc(C(F)(F)F)c1"
group_label = "false (0)"

[[record]]
sample_smiles = "COc1cccc(C(=O)CBr)c1"
group_label = "false (0)"


Would you kindly look at the next entry?
Q: Give the logged outcome of this assay for the following compound: O=[N+]([O-])c1cc(-c2ccccc2)cc([N+](=O)[O-])c1O
Result: true (1)

All values here come from PubChem BioAssay AID1259407.
